- Method Notes: Linear calculated pharmacokinetic parameters (Table 33)
- Type: in vivo
- Settings: human, plasma, po, dose 5 mg, read-out: Mean AUC0-168
Readout Label: AUC(0-t) (ng·h/mL)

Compound	Recorded Result
CN(C)C(=O)N[C@H]1CC[C@H](CCN2CCN(c3cccc(Cl)c3Cl)CC2)CC1 [cariprazine]	161

---

- Method Notes: Double-blind placebo controlled single dose pharmacokinetic study of cariprazine capsules in healthy male volunteers (Example 4)
- Type: in vivo, human
- Settings: male, human, plasma, oral; mean; single dose 1.5 mg capsules, fasted; Group II Period 2

Molecule	half-life
CN(C)C(=O)N[C@H]1CC[C@H](CCN2CCN(c3cccc(Cl)c3Cl)CC2)CC1	130 h

---

- Method Notes: Linear calculated pharmacokinetic parameters (Table 33)
- Type: in vivo
- Settings: human, plasma, po, dose 15 mg

Molecule	Cmax / ng/mL
CN(C)C(=O)N[C@H]1CC[C@H](CCN2CCN(c3cccc(Cl)c3Cl)CC2)CC1	19

---

- Method Notes: Single-center, randomized, open-label, parallel-group single-dose study, 2-mg tablet fasted/fed (Example 5)
- Assay type: in vivo
- Settings: both sexes, human, plasma, po, mean, single oral 2-mg tablet, Treatment 1 (Fasted)

Molecule	Tmax, h
CN(C)C(=O)N[C@H]1CC[C@H](CCN2CCN(c3cccc(Cl)c3Cl)CC2)CC1	4.91

---

- Method Notes: Single-center, randomized, open-label, parallel-group single-dose study, 2-mg tablet fasted/fed (Example 5)
- Type: in vivo
- Settings: both sexes, human, plasma, po, mean, single oral 2-mg tablet, Fed
- Experimental: The objectives of this study were (i) to assess the effect of food on the oral bioavailability of cariprazine (2-mg tablet), (ii) to assess the effect of gender on the oral bioavailability of cariprazine after a single oral dose (2-mg tablet), and (iii) to evaluate the pharmacokinetics of cariprazine and its metabolites after an oral dose (2-mg tablet). This clinical study was conducted as a single-center, randomized, open-label, parallel-group single-dose study. […]

Compound	AUC(0-inf) [ng·h/mL]
CN(C)C(=O)N[C@H]1CC[C@H](CCN2CCN(c3cccc(Cl)c3Cl)CC2)CC1 [cariprazine]	97

---

- Method Notes: Multiple dose study in healthy male volunteers (Example 6)
- Type: in vivo
- Settings: human, plasma, 1 mg, Group IV: 21 doses of 1.0 mg every day, fasted, read-out: AUC0-τ
- Experimental: Thirty-two healthy male subjects (mean age=24.9 years) were randomized into 4 groups (I-IV). […] Plasma samples were analyzed for cariprazine by a validated LC-MS/MS assay (Internal Standards: deuterated compounds; Sample preparation: Liquid-liquid extraction after alkalization; Sample Volume: 1 mL; Calibration Range: 0.05-25 ng/mL; Inonization: +ESI with MRM mode). […]

Molecule	AUC (ng·h/mL)
CN(C)C(=O)N[C@H]1CC[C@H](CCN2CCN(c3cccc(Cl)c3Cl)CC2)CC1	56.8

---

- Method Notes: Linear calculated pharmacokinetic parameters (Table 33)
- Type: in vivo
- Settings: human, plasma, po, dose 4.5 mg, read-out: Mean AUC0-168

Compound	AUC(0-t)
CN(C)C(=O)N[C@H]1CC[C@H](CCN2CCN(c3cccc(Cl)c3Cl)CC2)CC1 [cariprazine]	145 ng·h/mL

---

- Method Notes: Single-center, randomized, open-label, parallel-group single-dose study, 2-mg tablet fasted/fed (Example 5)
- Type: in vivo
- Settings: both sexes, human, plasma, po, mean, single oral 2-mg tablet, Fed

Molecule	Tmax, h
CN(C)C(=O)N[C@H]1CC[C@H](CCN2CCN(c3cccc(Cl)c3Cl)CC2)CC1	9.21
